Give KD 7.4/6 (APBP) for every item shown.
# system_name: T1, monomeric human CTLA-4 (human, UniProt P16410 36-161, limits assumed)
# T1 construct: Soluble monomeric analyte in SPR; also called huCTLA-4
# T1 sequence: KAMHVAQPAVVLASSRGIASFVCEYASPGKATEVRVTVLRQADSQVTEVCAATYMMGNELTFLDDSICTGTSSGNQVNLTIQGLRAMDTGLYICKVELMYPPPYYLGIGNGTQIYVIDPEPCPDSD
# run_description: SPR, captured Fab, pH 6.0 vs 7.4
Reply briefly: the number, and no unit.

stdin: # lookup: KD 7.4/6 (APBP) of ipi.94 Fab (Fab, V domains shown, Tested as monovalent Fab) VH: QVQLVESGGGVVQPGRSLRLSCAASGFTFSHYTMHWVRQAPGKGLEWVTFISYDGNNKYYADSVKGRFTISRDNSKNTLYLQMNSLRAEDTAIYYCARTGWLGPFDYWGQGTLVTVSS VL: EIVLTQSPGTLSLSPGERATLSCRASQEVGDSELAWYQQKPGQAPRLLIYGAFSRATGIPDRFSGSGSGTDFTLTISRLEPEDFAVYYCQQYGSSPWTFGQGTKVEIKR
stdout: 52

stdin: Also check ipi.95 Fab (Fab, V domains shown, Tested as monovalent Fab) VH: QVQLVESGGGVVQPGRSLRLSCAASGFTFSHYTMHWVRQAPGKGLEWVTFISYDGHNKYYADSVKGRFTISRDNSKNTLYLQMNSLRAEDTAIYYCARTGWLGPFDYWGQGTLVTVSS VL: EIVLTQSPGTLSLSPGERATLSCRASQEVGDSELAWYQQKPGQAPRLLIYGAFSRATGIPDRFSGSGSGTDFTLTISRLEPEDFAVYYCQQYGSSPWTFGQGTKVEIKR
stdout: 99

Data provenance is patent US20220193237A1.
